These measurements were taken from paper PMC5540273.

Here, each record is paired with measured %Inh data.
tested on: NEK4; conditions: concentration: 1 μM, replicates: in singlicate; n = 1;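 note: KINOMEscan kinase panel screen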
Write it as a number; the unit % goes unstated.

// worked examples, %Inh included
COc1ccc2cc(-c3nc(-c4ccccc4C(C)C)[nH]c3-c3ccncc3)ccc2c1 [SB-660566]
15
CC(C)c1ccc(O)cc1Nc1ccnc2ccc(C(F)(F)F)cc12 [GW482059]
0
CNC(=O)c1ccc(C)c(-n2c(C)cc(OCc3ccc(F)cc3F)c(Br)c2=O)c1
0
COC(=O)C(Cc1ccccc1)NC(=O)NC1CCN(c2ccnc(Nc3ccc(F)cc3)n2)C1 (stereo not shown) [GSK1379714]
0
Cc1c(Cn2c3ccccc3n3c(=O)cc(N4CCOCC4)nc23)cccc1C(F)(F)F [GSK2306394]
0
FC(F)(F)c1ccccc1-c1cc(-c2c[nH]nc2-c2ccccn2)ccn1 [GW679396]
0
Cc1ccc(-c2nc(Nc3ccncc3)c3ccccc3n2)s1 [GSK189015]
0
c1ccc(-c2ccnc3[nH]ccc23)cc1 [SB-693578]
0
COc1ccc(Nc2nccc(NCCNC(=O)Nc3cc(C)ccc3C)n2)cc1 [GSK1379899]
4
COc1ccc(CSc2nnc(-c3ccc4ncsc4c3)o2)cc1C(F)(F)F
0

Please examine the following record next.
%Inh in this record for Cc1ccc(NC(=O)Nc2ccccc2)cc1-c1ccc(C(=O)Nc2ccncc2)cc1 [GSK1398471] : 0
